Data credit: paper PMC10100342

tested on: Huh-7.5 Fluc infected; conditions: human
recorded.endpoint: CC50

Retrieve CC50 measured for C=C1NC(=O)C2(C)CSC(=N2)c2csc(n2)C2(C)CSC(=N2)C(C(C)CC)NC(=O)C(C)NC(=O)C(=CC(C)C)COC(=O)c2csc(n2)C(C(C)C)N(C)C(=O)C(COC)NC1=O (stereo not shown) and print it.
> 10 µM

====

system: ZIKV-H/PF/2013; experiment: microbe, parasite or virus in culture; format: cell-based; details: Zika virus, Huh-7, 48 h, read-out: IC50 against ZIKV-H/PF/2013
recorded.endpoint: pIC50
The value called pIC50 is obtained by taking minus log10 of the concentration in mol/L.

Specify pIC50 for NC(=O)c1ncn([C@@H]2O[C@H](CO)[C@@H](O)[C@H]2O)n1 [ribavirin, reference compound] , system ZIKV-H/PF/2013.
5.60

// next entry
Specify pIC50 for C=C1NC(=O)C2(C)CSC(=N2)c2csc(n2)C2(C)CSC(=N2)C(C(C)CC)NC(=O)C(C)NC(=O)C(=CC(C)C)COC(=O)c2csc(n2)C(C(C)C)N(C)C(=O)C(COC)NC1=O (stereo not drawn) , system ZIKV-H/PF/2013.
5.97

====

Huh-7.5 Fluc infected data, read-out CC50

Retrieve CC50 measured for COC(=O)/C=C(\OC)[C@H](C)[C@H](/C=C/c1csc(CCCCCCCC(C)C)n1)OC [Fulvuthiacene A] and print it.
> 10 µM

Further cases:
Retrieve CC50 measured for COC(=O)/C=C(\OC)[C@H](C)[C@H](/C=C/c1csc(CCCCCC(C)C)n1)OC [Fulvuthiacene B] and print it.
> 10 µM

====

assay: in vitro; details: human
recorded.endpoint: CC50 at 48 h
Number first, unit second: that is the form wanted.

Retrieve CC50 at 48 h measured for C=C1NC(=O)C2(C)CSC(=N2)c2csc(n2)C2(C)CSC(=N2)C(C(C)CC)NC(=O)C(C)NC(=O)C(=CC(C)C)COC(=O)c2csc(n2)C(C(C)C)N(C)C(=O)C(COC)NC1=O (stereo not shown) and print it.
2.25 µM

====

test system: hCoV-229E-luc; assay: organism not typed; type: cell-based, alphacoronavirus HCoV-229E; details: read-out: IC50 against hCoV-229E-luc; Huh-7.5/Fluc cells, 48 h, 33 °C, Renilla luciferase
Each entry below carries its recorded pIC50.
The value called pIC50 is obtained by taking minus log10 of the concentration in mol/L.

Retrieve pIC50 measured for C=C1NC(=O)C2(C)CSC(=N2)c2csc(n2)C2(C)CSC(=N2)C(C(C)CC)NC(=O)C(C)NC(=O)C(=CC(C)C)COC(=O)c2csc(n2)C(C(C)C)N(C)C(=O)C(COC)NC1=O (stereo not shown) [Thiamyxin B] and print it.
5.62

// next entry
Retrieve pIC50 measured for C=C1NC(=O)C2(C)CSC(=N2)c2csc(n2)C2(C)CSC(=N2)C(C(C)CC)NC(=O)C(C)NC(=O)C(=CC(C)C)COC(=O)c2csc(n2)C(C(C)C)N(C)C(=O)C(COC)NC1=O (stereo not shown) [Thiamyxin A] and print it.
5.61

====

tested on: hCoV-229E-luc; test: organism not typed; format: cell-based, alphacoronavirus HCoV-229E; details: Huh-7.5/Fluc cells, 48 h, 33 °C, Renilla luciferase; read-out: IC50 against hCoV-229E-luc
recorded.endpoint: pIC50
The value called pIC50 is obtained by taking minus log10 of the concentration in mol/L.

Specify pIC50 for `COC(=O)/C=C(\OC)[C@H](C)[C@H](/C=C/c1csc(CCCCCCCC(C)C)n1)OC` , system hCoV-229E-luc.
5.71

// next entry
Specify pIC50 for `COC(=O)/C=C(\OC)[C@H](C)[C@H](/C=C/c1csc(CCCCCC(C)C)n1)OC` , system hCoV-229E-luc.
6.01

====

test system: hCoV-229E-luc; assay: organism not typed; format: cell-based, alphacoronavirus HCoV-229E; conditions: read-out: IC50 against hCoV-229E-luc; Huh-7.5/Fluc cells, 48 h, 33 °C, Renilla luciferase; listed as KH_Mx152_1050
recorded.endpoint: IC50 (µM)
Please state the figure in µM; there is no need to write the unit.

Retrieve IC50 measured for C=C(NC(=O)C1(C)CSC(c2csc(C3(C)CSC(C(NC(=O)C(C)NC(=O)C(=CC(C)C)CO)C(C)CC)=N3)n2)=N1)C(=O)NC(COC)C(=O)N(C)C(c1nc(C(=O)OCC(O)CO)cs1)C(C)C (stereo not shown) and print it.
23.1
